The measurements presented in this section are drawn from ChEMBL document CHEMBL3352239.

tgt: Neuronal acetylcholine receptor subunit alpha-7 (Homo sapiens)
Sequence (P36544 whole entry): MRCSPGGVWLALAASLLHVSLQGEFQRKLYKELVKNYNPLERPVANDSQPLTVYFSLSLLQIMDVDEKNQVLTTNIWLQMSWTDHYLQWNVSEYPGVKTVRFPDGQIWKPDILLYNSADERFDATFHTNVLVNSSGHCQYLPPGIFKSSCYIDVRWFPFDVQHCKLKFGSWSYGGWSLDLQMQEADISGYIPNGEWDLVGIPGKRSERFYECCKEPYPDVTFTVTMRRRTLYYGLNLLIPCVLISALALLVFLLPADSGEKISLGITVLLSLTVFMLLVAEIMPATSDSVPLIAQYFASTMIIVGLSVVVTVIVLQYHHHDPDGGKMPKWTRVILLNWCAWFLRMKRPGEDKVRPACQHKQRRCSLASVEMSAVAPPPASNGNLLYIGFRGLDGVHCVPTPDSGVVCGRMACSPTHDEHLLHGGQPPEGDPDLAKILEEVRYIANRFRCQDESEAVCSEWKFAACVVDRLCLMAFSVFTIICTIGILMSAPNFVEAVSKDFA
protocol.details: Agonist activity at alpha7 nAChR (unknown origin)
endpoint.name: pKi
Just the number, please; pKi means minus log10 of the concentration in mol/L.

response.value for `O=C(N[C@H]1CN2CCC1CC2)c1ccc(Cl)cc1` (field: pKi) = 7.59

---

tgt: Neuronal acetylcholine receptor; alpha4/beta2 (Homo sapiens, UniProt P17787+P43681)
Sequence (P17787 whole entry): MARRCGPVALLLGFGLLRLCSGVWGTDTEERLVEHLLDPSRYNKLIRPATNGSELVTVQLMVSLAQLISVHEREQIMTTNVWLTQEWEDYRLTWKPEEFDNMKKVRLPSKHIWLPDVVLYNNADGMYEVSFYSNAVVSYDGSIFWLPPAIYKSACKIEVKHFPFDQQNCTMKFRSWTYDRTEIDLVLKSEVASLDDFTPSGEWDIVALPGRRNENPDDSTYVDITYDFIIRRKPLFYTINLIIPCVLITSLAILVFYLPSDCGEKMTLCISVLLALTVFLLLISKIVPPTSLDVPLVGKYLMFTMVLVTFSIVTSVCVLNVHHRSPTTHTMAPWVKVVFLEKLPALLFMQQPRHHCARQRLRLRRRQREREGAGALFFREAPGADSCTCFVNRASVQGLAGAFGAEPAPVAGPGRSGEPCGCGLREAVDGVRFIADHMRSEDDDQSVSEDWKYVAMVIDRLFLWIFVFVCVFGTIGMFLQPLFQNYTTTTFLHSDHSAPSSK
Sequence (P43681 whole entry): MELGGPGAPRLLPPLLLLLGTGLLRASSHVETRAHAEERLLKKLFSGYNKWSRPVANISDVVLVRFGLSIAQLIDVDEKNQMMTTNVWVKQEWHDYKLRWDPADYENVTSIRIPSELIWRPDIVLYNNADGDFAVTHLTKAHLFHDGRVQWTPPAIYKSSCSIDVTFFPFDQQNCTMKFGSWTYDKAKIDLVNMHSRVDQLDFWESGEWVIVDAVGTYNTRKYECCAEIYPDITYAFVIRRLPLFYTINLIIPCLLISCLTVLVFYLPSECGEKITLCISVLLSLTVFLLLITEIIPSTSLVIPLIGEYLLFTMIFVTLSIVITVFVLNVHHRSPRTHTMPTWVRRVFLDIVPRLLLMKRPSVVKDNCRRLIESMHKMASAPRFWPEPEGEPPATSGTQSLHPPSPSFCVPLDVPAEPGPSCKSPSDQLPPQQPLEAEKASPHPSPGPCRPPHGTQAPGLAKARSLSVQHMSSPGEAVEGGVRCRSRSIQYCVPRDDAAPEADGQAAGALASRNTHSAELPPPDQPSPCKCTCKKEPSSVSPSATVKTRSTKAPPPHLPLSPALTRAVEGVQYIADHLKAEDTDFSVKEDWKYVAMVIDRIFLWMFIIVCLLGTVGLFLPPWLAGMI
protocol.details: Activation of alpha4beta2 nAChR high affinity site (unknown origin) expressed in xenopus oocytes by electrophysiology method
Format: cell-based
endpoint.name: EC50 (nM)
Write the answer as a number in nM, unit excluded.

response.value for `Clc1cncc(N2CCCNCC2)c1` (field: EC50) = 11
